molecular target: A. suum QFR (complex II) (Ascaris suum, UniProt O44074+P92506+P92507); construct: from tissue; host or cells: adult Ascaris suum muscle, mitochondrial fraction; experiment: SQR activity assay of A. suum complex II (QFR) in mitochondrial fraction, UQ2 consumption at 278 nm; type: biochemical; details: IC50 (QFR), A. suum complex II, SQR assay, 298 K, pH 7.4
Sequence (Q33862 19-645): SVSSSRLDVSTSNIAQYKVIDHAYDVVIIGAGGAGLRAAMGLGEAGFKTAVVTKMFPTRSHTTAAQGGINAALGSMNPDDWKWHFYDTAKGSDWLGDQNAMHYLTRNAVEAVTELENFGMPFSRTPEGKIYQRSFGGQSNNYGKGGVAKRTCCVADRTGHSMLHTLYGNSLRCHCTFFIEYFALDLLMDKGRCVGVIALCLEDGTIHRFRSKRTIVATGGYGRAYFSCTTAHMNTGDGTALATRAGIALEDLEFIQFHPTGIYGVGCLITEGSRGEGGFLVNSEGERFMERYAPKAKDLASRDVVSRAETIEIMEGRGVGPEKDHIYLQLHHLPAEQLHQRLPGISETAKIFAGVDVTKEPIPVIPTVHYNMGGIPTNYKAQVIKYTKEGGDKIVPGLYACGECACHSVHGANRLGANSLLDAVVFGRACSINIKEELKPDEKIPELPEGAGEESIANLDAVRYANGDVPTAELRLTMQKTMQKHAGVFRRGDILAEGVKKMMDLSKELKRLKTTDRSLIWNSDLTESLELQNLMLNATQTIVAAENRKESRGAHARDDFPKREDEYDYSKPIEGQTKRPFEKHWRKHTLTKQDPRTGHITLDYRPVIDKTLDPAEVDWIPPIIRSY
Sequence (P92507 26-156): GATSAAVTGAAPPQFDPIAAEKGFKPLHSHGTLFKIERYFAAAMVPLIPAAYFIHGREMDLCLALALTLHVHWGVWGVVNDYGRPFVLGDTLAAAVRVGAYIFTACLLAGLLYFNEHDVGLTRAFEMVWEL
Sequence (P92506 32-188): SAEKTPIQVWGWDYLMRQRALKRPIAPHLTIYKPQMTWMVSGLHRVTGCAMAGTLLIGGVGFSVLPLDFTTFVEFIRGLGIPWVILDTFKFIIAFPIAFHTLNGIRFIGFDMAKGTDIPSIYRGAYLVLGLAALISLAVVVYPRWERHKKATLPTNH
Sequence (O44074 22-282): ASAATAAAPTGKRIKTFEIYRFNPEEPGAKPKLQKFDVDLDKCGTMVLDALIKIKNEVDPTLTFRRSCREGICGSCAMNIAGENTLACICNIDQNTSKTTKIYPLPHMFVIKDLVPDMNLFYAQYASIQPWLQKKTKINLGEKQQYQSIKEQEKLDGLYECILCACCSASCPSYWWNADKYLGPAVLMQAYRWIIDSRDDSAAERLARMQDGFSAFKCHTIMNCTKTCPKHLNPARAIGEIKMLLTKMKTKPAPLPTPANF
ENDPOINT: pIC50
# pIC50 is unitless: minus log10 of the molar concentration; print number only

Recorded result, CC(C)Oc1cccc(NC(=O)c2ccccc2C(F)(F)F)c1 [flutolanil, reference compound] , pIC50: 7.24

---

molecular target: A. suum QFR (complex II) (Ascaris suum, UniProt O44074+P92506+P92507); construct: from tissue; host or cells: adult Ascaris suum muscle, mitochondrial fraction; test: SQR activity assay of A. suum complex II (QFR) in mitochondrial fraction, UQ2 consumption at 278 nm; format: biochemical
# maps each entry to its IC50

Illustrative cases are given below, each with its answer.
CN(C)Cc1cccc(NC(=O)c2ccccc2C(F)(F)F)c1 [derivative 3]	3.42 µM
CC(C)Oc1cccc(NC(=O)c2ccccc2I)c1 [derivative 1]	0.0723 µM
O=C(Nc1cccc(Oc2ccccc2)c1)c1ccccc1C(F)(F)F [derivative 4]	0.0794 µM

Moving on to the next compound.
Recorded result, O=C(Nc1cccc(Oc2c(F)c(F)c(F)c(F)c2F)c1)c1ccccc1C(F)(F)F [derivative 6] , IC50: 0.33 µM

---

Biological target: porcine SQR (complex II) (Sus scrofa, UniProt A5GZW8+D0VWV4+Q007T0)
Construct: from tissue; host or cells: porcine heart muscle, mitochondrial fraction
Sequence (Q007T0 29-280): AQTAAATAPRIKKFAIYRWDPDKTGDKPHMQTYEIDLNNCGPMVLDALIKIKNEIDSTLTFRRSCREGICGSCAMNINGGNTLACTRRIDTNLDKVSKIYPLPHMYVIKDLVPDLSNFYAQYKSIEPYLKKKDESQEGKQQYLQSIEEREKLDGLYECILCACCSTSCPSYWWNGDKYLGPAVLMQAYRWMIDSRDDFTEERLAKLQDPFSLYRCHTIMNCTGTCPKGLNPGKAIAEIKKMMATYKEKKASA
Sequence (D0VWV4 30-169): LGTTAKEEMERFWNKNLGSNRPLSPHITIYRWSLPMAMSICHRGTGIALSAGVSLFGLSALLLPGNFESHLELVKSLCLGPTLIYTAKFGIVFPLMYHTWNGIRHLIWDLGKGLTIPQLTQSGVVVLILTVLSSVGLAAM
Sequence (A5GZW8 57-159 limits assumed): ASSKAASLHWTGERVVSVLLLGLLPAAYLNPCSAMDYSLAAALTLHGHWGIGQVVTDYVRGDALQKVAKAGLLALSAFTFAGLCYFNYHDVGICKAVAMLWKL
Sequence (Q0QF01 43-664 partner): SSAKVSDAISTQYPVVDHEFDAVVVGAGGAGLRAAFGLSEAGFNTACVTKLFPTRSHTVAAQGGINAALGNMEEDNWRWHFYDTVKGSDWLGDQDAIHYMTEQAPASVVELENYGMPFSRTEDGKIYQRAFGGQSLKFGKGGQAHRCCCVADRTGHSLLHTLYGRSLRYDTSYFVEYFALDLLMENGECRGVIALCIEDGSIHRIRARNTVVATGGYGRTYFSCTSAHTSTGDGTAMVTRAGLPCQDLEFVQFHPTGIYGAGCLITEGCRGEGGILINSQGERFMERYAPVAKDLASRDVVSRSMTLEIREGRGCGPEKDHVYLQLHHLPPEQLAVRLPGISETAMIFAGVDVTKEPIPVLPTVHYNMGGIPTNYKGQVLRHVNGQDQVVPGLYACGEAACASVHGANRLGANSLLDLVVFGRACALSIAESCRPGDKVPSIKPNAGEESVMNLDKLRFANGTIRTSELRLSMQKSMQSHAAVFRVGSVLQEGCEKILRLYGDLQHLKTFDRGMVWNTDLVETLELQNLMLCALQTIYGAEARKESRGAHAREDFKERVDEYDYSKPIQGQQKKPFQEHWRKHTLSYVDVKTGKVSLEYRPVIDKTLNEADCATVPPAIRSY
Assay: SQR activity assay of porcine complex II in mitochondrial fraction, UQ2 consumption at 278 nm
Assay type: biochemical
Experimental: The CP buffer containing the prepared mitochondrial fraction was replaced with 50 mM Tris–HCl buffer, pH 7.4 containing 1 mM disodium malonate, 210 mM mannitol, 10 mM sucrose, and 1 mM EDTA. Final concentrations of the A. suum and porcine mitochondria (quantified protein) were adjusted to 10 and 20 mg/mL, respectively. Mitochondrial fractions were separated in 50 μL aliquots, frozen by liquid nitrogen and stored at 193 K until use. […]
ENDPOINT: IC50 (µM)
Quick reminder: number only, in µM, skip the unit.

Recorded result, CC(C)Oc1cccc(NC(=O)c2ccccc2C(F)(F)F)c1 [flutolanil, reference compound] , IC50: 45.9

---

biological target: porcine SQR (complex II) (Sus scrofa, UniProt A5GZW8+D0VWV4+Q007T0); construct: from tissue; host or cells: porcine heart muscle, mitochondrial fraction; assay: SQR activity assay of porcine complex II in mitochondrial fraction, UQ2 consumption at 278 nm; type: biochemical; conditions: porcine complex II, SQR assay, 298 K, pH 7.4; read-out: IC50 (SQR)
# maps each entry to its IC50

Recorded result, O=C(Nc1cccc(Oc2c(F)c(F)c(F)c(F)c2F)c1)c1ccccc1C(F)(F)F [derivative 6] , IC50: 236 µM

Recorded result, O=C(Nc1cccc(Oc2ccccc2)c1)c1ccccc1C(F)(F)F [derivative 4] , IC50: 16.2 µM

Recorded result, O=C(Nc1cccc(-c2ccccc2)c1)c1ccccc1C(F)(F)F [derivative 5] , IC50: 8.61 µM

Recorded result, CC(C)(C)c1ccc(CNC(=O)c2ccccc2C(F)(F)F)cc1 [NN23] , IC50: 111 µM

Recorded result, CN(C)Cc1cccc(NC(=O)c2ccccc2C(F)(F)F)c1 [derivative 3] , IC50: 256 µM

Recorded result, CC(C)Oc1cccc(NC(=O)c2ccccc2I)c1 [derivative 1] , IC50: 6.43 µM

Recorded result, Cc1ccccc1C(=O)Nc1cccc(OC(C)C)c1 [derivative 2] , IC50: 90 µM
